systemTested: JAK3 (Homo sapiens, UniProt P52333)
Sequence (P52333 whole entry, species assumed): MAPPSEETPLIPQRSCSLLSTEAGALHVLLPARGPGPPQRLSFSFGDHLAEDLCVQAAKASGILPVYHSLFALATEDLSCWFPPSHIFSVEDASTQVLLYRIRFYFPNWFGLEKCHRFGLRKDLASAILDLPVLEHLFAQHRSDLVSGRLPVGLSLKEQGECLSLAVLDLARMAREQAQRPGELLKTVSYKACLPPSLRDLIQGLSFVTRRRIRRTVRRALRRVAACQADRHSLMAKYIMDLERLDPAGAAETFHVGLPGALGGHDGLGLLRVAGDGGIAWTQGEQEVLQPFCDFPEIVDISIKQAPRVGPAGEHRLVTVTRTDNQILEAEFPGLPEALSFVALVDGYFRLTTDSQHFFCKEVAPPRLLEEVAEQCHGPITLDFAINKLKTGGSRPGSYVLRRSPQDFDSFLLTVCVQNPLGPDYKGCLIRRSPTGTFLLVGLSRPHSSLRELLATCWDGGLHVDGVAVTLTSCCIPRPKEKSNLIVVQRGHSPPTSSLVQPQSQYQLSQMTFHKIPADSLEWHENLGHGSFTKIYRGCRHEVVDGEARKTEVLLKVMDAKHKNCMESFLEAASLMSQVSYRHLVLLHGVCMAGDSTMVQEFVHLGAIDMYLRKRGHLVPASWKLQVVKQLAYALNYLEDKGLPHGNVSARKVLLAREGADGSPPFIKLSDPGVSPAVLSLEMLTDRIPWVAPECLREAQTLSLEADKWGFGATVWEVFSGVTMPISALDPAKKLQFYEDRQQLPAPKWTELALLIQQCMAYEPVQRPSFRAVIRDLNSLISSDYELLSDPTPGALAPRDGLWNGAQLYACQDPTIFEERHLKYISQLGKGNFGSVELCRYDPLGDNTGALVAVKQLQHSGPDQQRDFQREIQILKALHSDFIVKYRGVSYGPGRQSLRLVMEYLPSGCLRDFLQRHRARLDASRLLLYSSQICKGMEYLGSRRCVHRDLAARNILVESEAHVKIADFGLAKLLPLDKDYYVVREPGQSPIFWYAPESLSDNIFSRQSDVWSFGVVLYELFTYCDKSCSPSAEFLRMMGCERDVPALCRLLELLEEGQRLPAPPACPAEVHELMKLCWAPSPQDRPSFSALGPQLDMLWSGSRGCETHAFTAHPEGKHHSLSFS
testProtocol: JAK 3 enzymatic inhibitory activity IC50 assay (Caliper conversion rate)
Type: biochemical
settings: Km ATP, 28° C., 1 hour; read-out: JAK 3 enzymatic inhibitory activity IC50
pIC50: −log10 of the molar value.

- smi: "CCS(=O)(=O)N1CC(CC#N)(n2cc(-c3nc(Nc4ccc(C#N)nc4)nc4ccsc34)cn2)C1"
  pIC50: "< 6.00"
- smi: "CCS(=O)(=O)N1CC(CC#N)(n2cc(-c3nc(Nc4ccc(-c5nn[nH]n5)cc4)nc4ccsc34)cn2)C1"
  pIC50: "6.30 to 7.30"
- smi: "C[C@@H](O)Cn1cc(Nc2nc(-c3cnn(C4(CC#N)CN(S(C)(=O)=O)C4)c3)c3sccc3n2)cn1"
  pIC50: "> 7.30"
- smi: "N#CCC1(n2cc(-c3nc(Nc4cnn(CCN5CCOCC5)c4)nc4ccsc34)cn2)CCOCC1"
  pIC50: "6.00 to 6.30"
- smi: "CCS(=O)(=O)N1CC(CC#N)(n2cc(-c3nc(Nc4cnn(CCN5CCOCC5)c4)nc4ccsc34)cn2)C1"
  pIC50: "> 7.30"
